test: compounds displacing fluorescent DNA intercalator, primary screen, artefact control for HCV NS3 helicase inhibitor project, biochemical, FID fluorescence (AID 1845); conditions: DNA fluorescent intercalator displacement, at 7.9 µM, active compounds read high;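 further: 0% = vehicle and 100% = reference compound; higher means more ethidium bromide displaced from hairpin DNA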
Among all 290,000 compounds or so, about 490 (0.17%) were called active. For the sample, actives were picked, then their nearest neighbours and some compounds at random.
Hi there, I'd appreciate the recorded inhibition for every entry that follows.
# unit: % | format: bare number

Look up inhibition of CC1CC(C)CN(CCCNC(=O)Cn2ncc3c([nH]c4ccccc43)c2=O)C1 (centres undefined) and report it.
5.73

Determine its reported inhibition: "O=C(/C=C/c1ccc([N+](=O)[O-])o1)NNC(=O)c1ccc(F)cc1"
-4.43

Tell me its inhibition given "Cc1cc([N+](=O)[O-])ccc1NC(=O)c1ccc(NC(=O)C(C)C)cc1" as the entry.
-1.34

Fill in inhibition for record "C/C(=N\Nc1cccc(C(=O)O)c1)c1ccc2c(c1)Nc1ccccc1S2"
-16.1

Kindly indicate its recorded inhibition. Item: "CC(=O)c1sc(N/N=C/c2ccc(C(C)C)cc2)nc1C"
4.61

Retrieve inhibition measured for "Cn1ccc(=Nc2ccc(NC(=O)c3ccc(N=c4ccn(C)c5ccc([N+](=O)[O-])cc45)cc3)cc2)cc1" and print it.
99

// Input: "O=C(Nc1ccc(C(=O)N2CCCCC2)cc1)c1cccc([N+](=O)[O-])c1" . Output its inhibition only.
-20.2

Please look at this compound and report its inhibition: CC(C)[C@@H](NC(=O)OC(C)(C)C)C(=O)NCC1CCC(C(=O)N[C@@H](Cc2ccccc2)C(=O)O)CC1 (some centres undefined)
-37.5

In one line, give reported inhibition of the entry "Cc1c2cnn(CC(=O)NCc3ccccn3)c(=O)c2c(C)n1Cc1ccc(Cl)cc1" .
-39

* * *

experiment: compounds displacing fluorescent DNA intercalator, primary screen, artefact control for HCV NS3 helicase inhibitor project, biochemical, FID fluorescence (AID 1845); conditions: DNA fluorescent intercalator displacement, at 7.9 µM, active compounds read high;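 further: 0% = vehicle and 100% = reference compound; higher means more ethidium bromide displaced from hairpin DNA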
Hit rate of the full screen: of about 290,000 compounds, about 490 (0.17%) were called active. The full list was thinned out, with actives kept by preference.
Can you tell me inhibition for the items I'm about to list?
Enter your answer as a number in %; do not include the unit.

Fill in inhibition for record CN(C)c1cccc(C(=O)N2CCC(n3nccc3NC(=O)C3CCOC3)CC2)c1 (stereo not drawn)
-16.7

Quote inhibition reported for "N#C/C(=C\c1ccc(-c2cccc([N+](=O)[O-])c2)o1)C(=O)NCCN1CCOCC1" please.
6.61

Please supply the value of reported inhibition for the item "OCCNc1nc(Nc2ccc(Cl)c(Cl)c2)nc2ccccc12"
40.6

Supply measured inhibition of "CN1CCN(CCCNC(=O)c2ccc(/C=C3\Oc4ccccc4N(Cc4ccc(Cl)cc4)C3=O)cc2)CC1" in your reply.
40.6

# return recorded inhibition for entry CCc1c(C)c2ccc(OC3CCCCC3=O)cc2oc1=O (stereo not drawn)
-19.1

Quick one: give measured inhibition for "Cc1ccoc1C(=O)Nc1cccc(Oc2ccccc2)c1"
-5.38

Determine its reported inhibition: "CC[n+]1cc(C)ccc1/C=C/c1ccc(N(C)C)cc1"
-33.2

Entry "O=C(NCCN1CCOCC1)c1ccc(/C=C2\Sc3ccccc3N(Cc3ccc(F)cc3)C2=O)cc1" needs its inhibition filled in; supply it.
0.94

Could you please provide reported inhibition for "NC(=O)COC(=O)c1ccc2c(c1)C(=O)N(Cc1ccco1)C2=O" ? Thanks!
-2.94

Please indicate inhibition recorded for O=C(NC1CCCCC1)C1CCC(CNS(=O)(=O)c2ccccc2)CC1 (stereo not drawn)
-36.5

Tell me its inhibition given "CN(CCO)S(=O)(=O)c1ccc2c(c1)C(=O)c1cc(S(=O)(=O)N(C)CCO)ccc1-2" as the entry.
0.99

Given "CC(C)C[C@@H](COc1ccccc1)N1CCN(CC(C)C)CCC1=O" , respond with its inhibition.
-13.2

Fill in inhibition for record CCOc1ccc(NC(=O)C(C)N2C(=O)c3ccccc3C2=O)cc1 (stereo not drawn)
-4.96

Supply reported inhibition belonging to this compound: CCC(C(=O)NCCC(C)C)N(Cc1ccccc1Cl)C(=O)c1snc(C(N)=O)c1N (stereo not drawn)
-29.9

Provide one value: measured inhibition of Cn1c(=N)n(CC(O)c2ccccc2)c2ccccc21 (stereo not drawn)
2.17

Respond only with inhibition recorded for "CC(C)C[C@H]1CN=C(Nc2ccccc2)N1CC1CCCCC1"
3.71

Annotate the compound "C/C(=N/OC(=O)c1ccc(Br)cc1)c1ccc(C)cc1" with its measured inhibition.
-5.35

// Input: "CN(C)CCNC(=O)/C(=C/c1cccc([N+](=O)[O-])c1)NC(=O)c1ccccc1" . Output its inhibition only.
14.4

* * *

assay: compounds displacing fluorescent DNA intercalator, primary screen, artefact control for HCV NS3 helicase inhibitor project, biochemical, FID fluorescence (AID 1845); settings: DNA fluorescent intercalator displacement, at 7.9 µM, active compounds read high;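 further: 0% = vehicle and 100% = reference compound; higher means more ethidium bromide displaced from hairpin DNA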
About 490 (0.17%) of roughly 290,000 compounds were called active. Shown is part of a subset that was picked to be rich in actives.
MEASURE: inhibition (%)
The figure you give is taken to be in %; do not add the unit.

Specify reported inhibition for the compound shown: "O=C(NCCN1CCOCC1)c1cc(-c2cccs2)nc2ccccc12"
3.9

Give the measured inhibition for "COc1ccc(S(=O)(=O)NNC(=O)Nc2ccc(C)cc2)c(OC)c1"
-10.4

Please report the measured inhibition for "O=C(CSc1nc2nccnc2c(=O)n1Cc1cccs1)Nc1ccccc1F"
-11.4

Indicate its recorded inhibition; the compound in question is "O=C(Cn1ccc2cc(S(=O)(=O)N3CCCC3)ccc21)NCc1ccccc1"
-16.4

// fetch inhibition given entry CN(C)C(=O)CCC(=O)N1CCCCC1C(=O)Nc1ccc(Oc2ccccc2F)cc1 (stereo unspecified)
-34

Please report inhibition for the following compound: "Cn1c(=O)c2ccccc2n(CC(=O)Nc2ccc3c(c2)OCCO3)c1=O"
-7.1

Please report inhibition for the following compound: "O=C(NCCN1CCOCC1)c1ccc2c(c1)ncn2C1CCCC1"
-5.28

Note inhibition for the compound shown: COCCCN1C(=O)C(=O)/C(=C(/O)c2ccc(S(=O)(=O)N3CCOCC3)cc2)C1c1ccc(F)cc1 (stereo unspecified)
-50.7

State its inhibition for this compound: "COc1ccc(OC)c(NC(=O)CN(Cc2ccc(Cl)cc2)S(C)(=O)=O)c1"
-26.1

Provide only the value of recorded inhibition for COc1ccc(C(=O)N2CCCCC2C(=O)Nc2ccc(-n3nc(C)cc3C)cc2)o1 (stereo unspecified)
-43.5

Answer with the recorded inhibition of CC1CN(C(=O)CCC(=O)NC2CCN(Cc3ccccc3)CC2)c2ccccc2O1 (stereo unspecified) only.
2.82
